Target: Dual specificity protein kinase CLK4 (Homo sapiens) (UniProt Q9HAZ1)
Sequence (Q9HAZ1 whole entry, looked up): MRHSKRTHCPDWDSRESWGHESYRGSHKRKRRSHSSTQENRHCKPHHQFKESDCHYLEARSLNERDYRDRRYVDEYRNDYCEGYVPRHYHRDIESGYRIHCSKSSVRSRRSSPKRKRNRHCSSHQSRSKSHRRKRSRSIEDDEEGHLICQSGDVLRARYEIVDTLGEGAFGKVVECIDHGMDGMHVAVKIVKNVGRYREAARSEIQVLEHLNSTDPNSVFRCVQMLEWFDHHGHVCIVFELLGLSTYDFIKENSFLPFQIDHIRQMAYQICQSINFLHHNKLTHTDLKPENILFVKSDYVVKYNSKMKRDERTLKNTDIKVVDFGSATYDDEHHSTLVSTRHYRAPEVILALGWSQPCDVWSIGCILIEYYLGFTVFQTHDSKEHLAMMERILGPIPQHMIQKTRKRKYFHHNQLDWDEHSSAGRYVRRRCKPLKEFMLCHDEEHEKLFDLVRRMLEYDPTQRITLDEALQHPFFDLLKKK
Experiment: qHTS Assay for Inhibitors of CDC-like Kinase 4 (ADP-FP Assay) (AID 1795); note: nearly all actives have a fitted effect of over 60% in size
Settings: Transcreener ADP fluorescence polarization; series mostly up to 50 µM
Results filed as inconclusive are left out. Calls of active or inactive are those of the source. Calls come from the whole dose curve; as a rule, active = well fitted inhibition curve with a large enough effect; inconclusive = small, poorly fitted or top-dose-only effect; inactive = flat fitted curve, though single readings scatter.
Your response should consist of one outcome taken from 1.0 = active, 0.0 = inactive

### Prompt Please indicate how the test categorized Cc1nc2cnc(Oc3ccccc3)nc2n(Cc2cccs2)c1=O .
### Response 0.0

### Prompt Field entry: Cn1cc(-c2nc3cnc(Oc4ccccc4)nc3n(Cc3cccs3)c2=O)c2ccccc21
### Response 0.0

### Prompt Field entry: CN(C)c1ccc(-c2cncnc2NCc2cccnc2)cc1
### Response 0.0

### Prompt Field entry: CN(C)c1ncc2nc(-c3ccc(Cl)cc3)c(=O)n(Cc3ccc(F)cc3)c2n1
### Response 0.0

### Prompt Field entry: COc1ccc(CNc2ncnc3ccc(-c4ccoc4)cc23)c(OC)c1
### Response 1.0

### Prompt Field entry: CN(Cc1ccco1)c1ncncc1-c1cccnc1
### Response 0.0

### Prompt Field entry: Cc1noc(C)c1-c1nccc(N(C)C)n1
### Response 0.0

### Prompt Field entry: COc1cccc(-c2cc(NCc3ccccc3)ncn2)c1
### Response 1.0

### Prompt Field entry: COc1ccc(-c2nc3cnc(N(C)C)nc3n(Cc3ccc(F)cc3)c2=O)cc1
### Response 0.0

### Prompt Field entry: O=c1c(-c2ccccc2)nc2cnc(Oc3cccc(Cl)c3)nc2n1C1CC1
### Response 0.0

### Prompt Field entry: COc1cccc(-c2nc(NCc3ccccc3OC)c3ccccc3n2)c1
### Response 0.0

### Prompt Field entry: COc1cccc(-c2cc(NCc3ccc(OC)cc3OC)ncn2)c1
### Response 0.0

### Prompt Field entry: c1ccc(Nc2ncnc3ccc(-c4ccoc4)cc23)cc1
### Response 1.0

### Prompt Field entry: Cn1c(=O)c(CCc2ccccc2)nc2cnc(N3CCOCC3)nc21
### Response 0.0

### Prompt Field entry: FC(F)(F)c1ccccc1-c1cncnc1NCc1cccnc1
### Response 0.0

### Prompt Field entry: CN(C)Cc1ccccc1-c1nccc(N(C)Cc2ccco2)n1
### Response 0.0

### Prompt Field entry: COc1ccc(-n2c(=O)c(-c3ccccc3)nc3cnc(N4CCOCC4)nc32)cc1
### Response 0.0

### Prompt Field entry: Cn1c(=O)c(-c2cc(F)cc(F)c2)nc2cnc(N3CCNCC3)nc21
### Response 0.0

### Prompt Field entry: CN(C)c1ncnc2ccc(-c3ccccc3C(F)(F)F)cc12
### Response 0.0

### Prompt Field entry: COc1cccc(Nc2ncc3ncc(=O)n(Cc4cccs4)c3n2)c1
### Response 1.0

### Prompt Field entry: Cc1cnc(CNc2ncnc3ccc(-c4ccc(C(=O)N(C)C)cc4)cc23)cn1
### Response 0.0

### Prompt Field entry: CN(C)c1nc(-c2ccccc2C(F)(F)F)nc2ccccc12
### Response 0.0

### Prompt Field entry: CN1CCN(c2ncc3nc(-c4cccc(C#N)c4)c(=O)n(C[C@H]4CCCO4)c3n2)CC1
### Response 0.0

---

Hi there, I'd appreciate the recorded activity, negative = inhibition for every entry that follows.
Experiment: Stat Signaling Pathway (AID 446);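 note: ME-180 cervical cancer cells given 40 pM IL-6 alongside compound; SIE-controlled beta-lactamase reporter measured as 460/530 nm FRET emission ratio; % is set by controls: 0 for no effect and ±100 for the full control effect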
Settings: ME-180 (cervical carcinoma) SIE beta-lactamase reporter, IL-6 stimulated, 5 h; at 7.69 µM (top of the series) unless noted
Inconclusive results are not listed. Activity calls are given as the source filed them. Calls follow the shape of the dose curve; as a rule, active = well fitted curve in either direction with a large enough effect (not every such curve was filed as active); inconclusive = small, poorly fitted or top-dose-only effect, or another doubt; inactive = flat fitted curve, though single readings scatter.

### Prompt For Cc1cnc(CNc2cc(-c3ccc(N(C)C)cc3)ncn2)cn1 , what is its reported activity, negative = inhibition?
### Response -5.54% (inactive)

### Prompt Field entry: CN1CCN(c2cc(-c3ccccc3Cl)ncn2)CC1
### Response -1.39% (inactive)

### Prompt Field entry: Cc1noc(C)c1C(=O)N1CCC2(CC1)CCN(C(c1ccccc1)c1ccccc1)CC2
### Response 10.1% (inactive)

### Prompt Field entry: COc1ccccc1CCn1c(=O)c(CCc2ccccc2)nc2cncnc21
### Response -8.11% (inactive)

### Prompt Field entry: CN(C)C(=O)c1ccc(-c2nc(N(C)Cc3ccco3)c3ccccc3n2)cc1
### Response 3.3% (inactive)

### Prompt Field entry: CC(=O)N1CCC2(CC1)CCN(c1ccc(-c3ccccc3)cc1)CC2
### Response -16.9% (inactive)
